src = patent US6914045B2

tested on: Enterococcus sp.; assay: in vitro antibacterial evaluation, MIC by broth dilution; assay type: cell-based; conditions: broth dilution, 18 hours at 35° C.
Record form. Attribute: MIC Enterococcus faecium (GC 2243). Fill in for each entry.

Recorded results for 2 compounds are shown here.
INSERT INTO assay_data (compound, assay_system, readout, test_result) VALUES
  ('CC(c1ccccc1)C1NC(=O)CNC(=O)C(CO)NC(=O)C(CC2CN(Cc3ccccc3)C(=NCc3ccccc3)N2C2OC(CO)C(O)C(O)C2O)NC(=O)C(CC2CN(Cc3ccccc3)C(=NCc3ccccc3)N2Cc2ccccc2)NC(=O)C(Cc2ccc(OC3OC(CO)C(OC4OC(CO)C(O)C(O)C4O)C(O)C3O)cc2)NC1=O (stereo not drawn) [Example 73]', 'Enterococcus sp.', 'MIC Enterococcus faecium (GC 2243)', '>128 mg/L'),
  ('CC(c1ccccc1)C1NC(=O)CNC(=O)C(CO)NC(=O)C(C(O)C2CN(Cc3ccc4ccccc4c3)C(=N)N2C2OC(CO)C(O)C(O)C2O)NC(=O)C(C(O)C2CNC(=N)N2)NC(=O)C(Cc2ccc(OC3OC(CO)C(OC4OC(CO)C(O)C(O)C4O)C(O)C3O)cc2)NC1=O (stereo not drawn) [Example 67]', 'Enterococcus sp.', 'MIC Enterococcus faecium (GC 2243)', '>128 mg/L');

Consider the record given below.
Ask | Could you tell me which MIC Enterococcus faecium (GC 2243) is on file for CC(c1ccccc1)C1NC(=O)CNC(=O)C(CO)NC(=O)C(C(O)C2CNC(=NCc3ccccc3)N2C2OC(CO)C(O)C(O)C2O)NC(=O)C(C(O)C2CNC(=N)N2)NC(=O)C(Cc2ccc(OC3OC(CO)C(OC4OC5COC6(OC5C(O)C4O)C4CC5CC(C4)CC6C5)C(O)C3O)cc2)NC1=O (stereo not drawn) [Example 76] ?
Reply | 2 to 8 mg/L

----------
Exercise: state measured MIC Enterococcus avium (GC 4558) for each of the molecules provided.
test system: Enterococcus sp.; assay: in vitro antibacterial evaluation, MIC by broth dilution; format: cell-based; settings: Enterococcus avium (GC 4558); broth dilution, 18 hours at 35° C.
Numbered stars: 1 amine (or outer) side, 2 acyl side, 3 side chain; on linkers, the order of the positions; unused ones are H or OH. Square brackets hold non-standard residues; d marks the D form. Peptide text beside a SMILES is read from it. * marks the point of attachment. ξ: configuration not given here. X1 = N=C1NCC(C(O)C(N[*:1])C(=O)[*:2])N1C1OC(CO)C(O)C(O)C1O; ξEnduracididine(βξ-OH,4'ξ) = N=C1NCC(C(O)C(N)C(=O)O)N1; X2 = OCC1OC(OC2C(CO)OC(*)C(O)C2O)C(O)C(O)C1O; Diphenylacetyl = O=C(C(c1ccccc1)c1ccccc1)*; ξPhe(βξ-Me) = CC(c1ccccc1)C(N)C(=O)O

INSERT INTO results (molecule, readout, test_result) VALUES
  ('CC(C)CC(=O)OC1C(OC2C(CO)OC(Oc3ccc(CC4NC(=O)C(C(C)c5ccccc5)NC(=O)CNC(=O)C(CO)NC(=O)C(CC5CNC(=N)N5C5OC(CO)C(O)C(O)C5O)NC(=O)C(CC5CNC(=N)N5)NC4=O)cc3)C(O)C2O)OC(CO)C(O)C1O (stereo not shown) [Example 277b]', 'MIC Enterococcus avium (GC 4558)', '>64 µg/mL'),
  ('CC(c1ccccc1)C1NC(=O)CNC(=O)C(CO)NC(=O)C(C(O)C2CNC(=N)N2C2OC(CO)C(O)C(O)C2O)NC(=O)C(C(O)C2CNC(=N)N2)NC(=O)C(Cc2ccc(OC3OC(CO)C(OC4OC5COC(c6ccccc6)OC5C(O)C4O)C(O)C3O)cc2)NC1=O (stereo not shown)', 'MIC Enterococcus avium (GC 4558)', '2 to 4 µg/mL'),
  ('CC(c1ccccc1)C1NC(=O)CNC(=O)C(CO)NC(=O)C(C(O)C2CNC(=N)N2C2OC(CO)C(O)C(O)C2O)NC(=O)C(C(O)C2CNC(=N)N2)NC(=O)C(Cc2ccc(OC3OC(CO)C(OC4OC5COC(Cc6ccccc6)OC5C(O)C4O)C(O)C3O)cc2)NC1=O (stereo not shown)', 'MIC Enterococcus avium (GC 4558)', '2 to 4 µg/mL');

Proceeding to the next molecule to report its MIC Enterococcus avium (GC 4558).
Ask | Which MIC Enterococcus avium (GC 4558) is reported for this molecule? CC(c1ccccc1)C1NC(=O)CNC(=O)C(COC(=O)C(c2ccccc2)c2ccccc2)NC(=O)C(C(O)C2CNC(=N)N2C2OC(CO)C(O)C(O)C2O)NC(=O)C(C(O)C2CNC(=N)N2)NC(=O)C(Cc2ccc(OC3OC(CO)C(OC4OC(CO)C(O)C(O)C4O)C(O)C3O)cc2)NC1=O (stereo not drawn) [Example 96a] (cyclo(G[ξPhe(βξ-Me)]Y(X2)[ξEnduracididine(βξ-OH,4'ξ)][X1]S(Diphenylacetyl)); configuration not given here)
Reply | >128 µg/mL

----------
tested on: Enterococcus sp.; assay: in vitro antibacterial evaluation, MIC by broth dilution; assay type: cell-based; conditions: strain GC 2691; broth dilution, 18 hours at 35° C.
Readout: MIC Enterococcus faecalis (GC 2691)

Recorded MIC Enterococcus faecalis (GC 2691), per entry:
INSERT INTO assay_data (compound, readout, test_result) VALUES
  ('COc1cc(C2OCC3OC(OC4C(CO)OC(Oc5ccc(CC6NC(=O)C(C(C)c7ccccc7)NC(=O)CNC(=O)C(CO)NC(=O)C(C(O)C7CNC(=N)N7C7OC(CO)C(O)C(O)C7O)NC(=O)C(C(O)C7CNC(=N)N7)NC6=O)cc5)C(O)C4O)C(O)C(O)C3O2)cc([N+](=O)[O-])c1O (stereo not drawn)', 'MIC Enterococcus faecalis (GC 2691)', '>64 µg/mL'),
  ('CC(c1ccccc1)C1NC(=O)CNC(=O)C(CO)NC(=O)C(C(O)C2CNC(=N)N2C2OC(CO)C(O)C(O)C2O)NC(=O)C(C(O)C2CNC(=N)N2)NC(=O)C(Cc2ccc3oc(=O)[nH]c3c2)NC1=O (stereo not drawn)', 'MIC Enterococcus faecalis (GC 2691)', '>128 µg/mL');

Now for another entry.
Ask | Form entry - test system: Enterococcus sp.; read-out: MIC Enterococcus faecalis (GC 2691); compound: CC(c1ccccc1)C1NC(=O)CNC(=O)C(CO)NC(=O)C(C(O)C2CNC(=N)N2C2OC(CO)C(O)C(O)C2O)NC(=O)C(C(O)C2CNC(=N)N2)NC(=O)C(Cc2ccc(O)c(NC(=O)c3ccccc3)c2)NC1=O (stereo not drawn)
Reply | >64 µg/mL

----------
system: Staphylococcus sp.; assay: in vitro antibacterial evaluation, MIC by broth dilution; type: cell-based; conditions: strain GC 4546; broth dilution, 18 hours at 35° C.
Numbered stars: 1 amine (or outer) side, 2 acyl side, 3 side chain; on linkers, the order of the positions; unused ones are H or OH. Square brackets hold non-standard residues; d marks the D form. Peptide text beside a SMILES is read from it. * marks the point of attachment. ξ: configuration not given here. X1 = N=C1NCC(C(O)C(N[*:1])C(=O)[*:2])N1C1OC(CO)C(O)C(O)C1O; ξEnduracididine(βξ-OH,4'ξ) = N=C1NCC(C(O)C(N)C(=O)O)N1; X2 = OCC1OC(OC2C(CO)OC(*)C(O)C2O)C(O)C(O)C1O; ξCha(3ξ-Me) = CC(C1CCCCC1)C(N)C(=O)O
Would you kindly list MIC Staphylococcus haemolyticus (GC 4546) for each of these compounds?
One number for each entry, in µg/mL.

INSERT INTO assay_data (compound, assay_system, test_result) VALUES
  ('COc1ccc2cc(C3OCC4OC(OC5C(CO)OC(Oc6ccc(CC7NC(=O)C(C(C)c8ccccc8)NC(=O)CNC(=O)C(CO)NC(=O)C(CC8CNC(=N)N8C8OC(CO)C(O)C(O)C8O)NC(=O)C(CC8CNC(=N)N8)NC7=O)cc6)C(O)C5O)C(O)C(O)C4O3)ccc2c1 (centres unmarked)', 'Staphylococcus sp.', 8),
  ('CC(c1ccccc1)C1NC(=O)CNC(=O)C(CO)NC(=O)C(C(O)C2CNC(=N)N2C2OC(CO)C(O)C(O)C2O)NC(=O)C(C(O)C2CNC(=N)N2)NC(=O)C(Cc2ccc(O)c(NC(=S)Nc3cc(C(F)(F)F)cc(C(F)(F)F)c3)c2)NC1=O (centres unmarked)', 'Staphylococcus sp.', 64),
  ('CC(C1CCCCC1)C1NC(=O)CNC(=O)C(CO)NC(=O)C(C(O)C2CNC(=N)N2C2OC(CO)C(O)C(O)C2O)NC(=O)C(C(O)C2CNC(=N)N2)NC(=O)C(Cc2ccc(OC3OC(CO)C(OC4OC(CO)C(O)C(O)C4O)C(O)C3O)cc2)NC1=O (stereo not drawn) [Example 51] (cyclo(G[ξCha(3ξ-Me)]Y(X2)[ξEnduracididine(βξ-OH,4''ξ)][X1]S); configuration not given here)', 'Staphylococcus sp.', 32),
  ('CC(c1ccccc1)C1NC(=O)CNC(=O)C(CO)NC(=O)C(CC2CNC(=N)N2C2OC(CO)C(O)C(O)C2O)NC(=O)C(CC2CNC(=N)N2)NC(=O)C(Cc2ccc3oc(-c4ccc5c(c4)Cc4ccccc4-5)nc3c2)NC1=O (centres unmarked)', 'Staphylococcus sp.', 2),
  ('CC(c1ccccc1)C1NC(=O)CNC(=O)C(CO)NC(=O)C(C(O)C2CNC(=N)N2C2OC(CO)C(O)C(O)C2O)NC(=O)C(C(O)C2CNC(=N)N2)NC(=O)C(Cc2ccc3oc(SCC(=O)c4ccccc4)nc3c2)NC1=O (centres unmarked)', 'Staphylococcus sp.', 8),
  ('CC(c1ccccc1)C1NC(=O)CNC(=O)C(CO)NC(=O)C(C(O)C2CNC(=N)N2C2OC(CO)C(O)C(O)C2O)NC(=O)C(C(O)C2CNC(=N)N2)NC(=O)C(Cc2ccc(OC3OC(CO)C(OC4OC5COC(c6cccc(Oc7cccc(C(F)(F)F)c7)c6)OC5C(O)C4O)C(O)C3O)cc2)NC1=O (centres unmarked)', 'Staphylococcus sp.', 32);

Hey, can you go through the list below and give me MIC Staphylococcus haemolyticus (GC 4546) for every item?
1. CCCC(C)C1OCC2OC(OC3C(CO)OC(Oc4ccc(CC5NC(=O)C(C(C)c6ccc(Cl)cc6)NC(=O)CNC(=O)C(CO)NC(=O)C(C(O)C6CNC(=N)N6C6OC(CO)C(O)C(O)C6O)NC(=O)C(C(O)C6CNC(=N)N6)NC5=O)cc4)C(O)C3O)C(O)C(O)C2O1 (centres unmarked)
2. CC(c1ccccc1)C1NC(=O)CNC(=O)C(CO)NC(=O)C(CC2CN(Cc3ccccc3)C(=N)N2C2OC(CO)C(O)C(O)C2O)NC(=O)C(CC2CNC(=N)N2)NC(=O)C(Cc2ccc(OC3OC(CO)C(OC4OC5COC6(OC5C(O)C4O)C4CC5CC(C4)CC6C5)C(O)C3O)cc2)NC1=O (centres unmarked)

Reply |
0.5
32
